conditions: in ethanol, 293.15 K
PROPERTY: solubility (mole fraction)

Enquiry: Quick one: solubility (mole fraction) of NCC1(CC(=O)O)CCCCC1 ?
Return: 0.0017

###

settings: in water, 323.15 K
PROPERTY: solubility (mole fraction)
Answer with a bare number; do not write a unit.

Enquiry: Quick one: solubility (mole fraction) of NCC1(CC(=O)O)CCCCC1.O ?
Return: 0.0222

###

conditions: in methanol, 293.15 K
PROPERTY: solubility (mole fraction)
Answer with a bare number; do not write a unit.

Enquiry: Quick one: solubility (mole fraction) of NCC1(CC(=O)O)CCCCC1 ?
Return: 0.00878
